B1: library; numbered along this chain (parent)
chain: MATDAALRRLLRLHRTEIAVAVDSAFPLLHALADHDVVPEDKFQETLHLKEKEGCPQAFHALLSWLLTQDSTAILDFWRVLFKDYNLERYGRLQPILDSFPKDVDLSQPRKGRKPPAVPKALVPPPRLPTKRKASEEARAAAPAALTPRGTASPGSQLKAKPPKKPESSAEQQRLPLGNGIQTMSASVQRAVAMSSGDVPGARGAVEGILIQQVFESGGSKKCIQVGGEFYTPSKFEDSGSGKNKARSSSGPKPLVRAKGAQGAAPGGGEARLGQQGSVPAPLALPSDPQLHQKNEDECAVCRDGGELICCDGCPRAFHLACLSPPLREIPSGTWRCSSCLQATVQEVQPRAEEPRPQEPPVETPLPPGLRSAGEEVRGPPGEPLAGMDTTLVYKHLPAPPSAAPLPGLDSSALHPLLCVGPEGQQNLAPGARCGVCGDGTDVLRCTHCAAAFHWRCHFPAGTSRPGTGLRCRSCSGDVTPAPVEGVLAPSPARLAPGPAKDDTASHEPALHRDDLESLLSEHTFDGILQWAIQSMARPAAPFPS

# Variants of: B1
# method: AIRE transcriptional activation functional score (insulin promoter-GFP; nonsense median 0, synonymous median 1) (normalised score); higher = higher AIRE activity (more reporter activation)
# applied.conditions: with insulin promoter-GFP reporter in HEK293
property.name: AIRE transcriptional activation functional score
// response body must contain only the number

Inquiry: // AIRE transcriptional activation functional score lookup, key: "P166D"
Reply text: 0.983

Inquiry: Query (variant): "P27W" ; field requested: AIRE transcriptional activation functional score
Reply text: 0.934

Next:
Inquiry: If you can, please state the reported AIRE transcriptional activation functional score value of "P95C" .
Reply text: 0.979

Inquiry: # get_value(readout='AIRE transcriptional activation functional score', item= "S217R" )
Reply text: 0.942

Inquiry: Form field: reported AIRE transcriptional activation functional score of "C457I"
Reply text: -0.23

Inquiry: Reported AIRE transcriptional activation functional score for "P360F" : what is it?
Reply text: 1.2

Inquiry: Can you look up the measured AIRE transcriptional activation functional score of "P499S" for me?
Reply text: 1.1

Inquiry: Endpoint output: AIRE transcriptional activation functional score of "A413P" . Value?
Reply text: 0.731

Inquiry: Recorded AIRE transcriptional activation functional score for "Q172S" , please?
Reply text: 0.645

Inquiry: So what does the record say about AIRE transcriptional activation functional score for "A271T" ?
Reply text: 0.847

Inquiry: Quick one: AIRE transcriptional activation functional score of "P280I" ?
Reply text: 0.993
